# SYSTEM_NAME: T1, Human MuSK (R&D Systems, cat. 10189-MK, histidine tag) (human, UniProt O15146 24-495)
# T1 construct: Bought protein; also called human monomeric MuSK-6xhis; not shown: histidine tag (6xhis)
# T1 sequence: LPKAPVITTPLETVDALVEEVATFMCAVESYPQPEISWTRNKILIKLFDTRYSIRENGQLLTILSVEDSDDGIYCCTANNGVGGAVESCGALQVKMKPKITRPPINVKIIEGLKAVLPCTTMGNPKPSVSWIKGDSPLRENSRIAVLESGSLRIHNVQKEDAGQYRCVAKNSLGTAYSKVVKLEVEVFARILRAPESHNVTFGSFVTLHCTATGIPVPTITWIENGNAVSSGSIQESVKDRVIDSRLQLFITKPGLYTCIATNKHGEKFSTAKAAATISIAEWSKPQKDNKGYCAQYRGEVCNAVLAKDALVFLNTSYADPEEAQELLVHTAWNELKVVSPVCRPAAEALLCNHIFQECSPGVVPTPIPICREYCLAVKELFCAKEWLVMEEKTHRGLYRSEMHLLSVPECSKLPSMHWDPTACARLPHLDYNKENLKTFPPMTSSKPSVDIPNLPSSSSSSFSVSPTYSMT
# ASSAY_EXPLANATION: SPR (Biacore), MuSK-coated chip presaturated with 500 nM 3D10a (competitor)
QUANTITY_NAME: extra amplitude (%)

Fill blank: measured extra amplitude (%) of the binder 3B5 (antibody, V domains shown, also called 3B5wt) VH: QVQLVQSGAVVAKPGASVQVSCKTSGYTFTGQYLHWVRQAPGQGLEWIGWINPSSGVTKFAEKFEGRATMTRDTSITTAYIDLRSLRSDDTATYYCATLSLGVYYVGMVAWGQGTLVTVSS VL: ELTQPPSVSVSPGQTATITCSGDGLAQQHVYWFQQRPGQAPLLIIYKDIERPSGIPERFSGSSSGTTAMLTISGVQAEDEADYYCQSGDRTATSVLFGGGTKMTVLG is ____. 344%
